- System: HCT-15 colon
- testMethodNotes: NCI-60 one-dose screen, 48 h (100 = growth as untreated, 0 = no growth, -100 = all killed)
- testContext: 10 µM unless noted
About 83,000 compounds went through this panel and 20% of them were active in at least one assay; those are over-represented in the sample as a whole.
assayMetric: growth (%)
Just the number please, in %, no unit attached.

Consider the compound NC1=NC(SCc2ccccc2CCl)c2ncn(Cc3ccccc3CCl)c2N1 (stereo not drawn) and give its measured growth. 76.5

Likewise for COc1ccc(CN2CCc3c(Sc4ccccc4)nc(N)nc3C2=O)c(OC)c1 ? 66.8

Likewise for C=C[C@@H]1C[C@H](O)Cc2c(C)cc(C)cc2N1 ? 101

###

- System: UACC-62 melanoma
- testMethodNotes: NCI-60 one-dose screen, 48 h (100 = growth as untreated, 0 = no growth, -100 = all killed)
- testContext: 10 µM unless noted
This is part of a sample that, as a whole, favours compounds with a hit. Of some 83,000 tested, about 20% had one in any assay.
Each record here notes measured growth.
Just the number please, in %, no unit attached.

Consider the compound Nc1nc(Nc2cc(Cl)cc(Cl)c2)nn1S(=O)(=O)c1ccc2ccccc2c1 and give its measured growth. 67

Likewise for N=c1ccc2nc3ccc(N)cc3sc-2c1 ? 16.4

###

- System: M14 melanoma
- testMethodNotes: NCI-60 one-dose screen, 48 h (100 = growth as untreated, 0 = no growth, -100 = all killed)
- testContext: 10 µM unless noted
The panel holds about 83,000 compounds, 20% with a hit somewhere; the sample as a whole holds those more often.
Each record here notes measured growth.
Just the number please, in %, no unit attached.

| molecule | unitSymbol | growth |
| --- | --- | --- |
| NNc1cccc(/C=C/c2ccccc2)cc1=O | % | 61.4 |
| CCOC(=O)c1ccc2c(c1)c1c(C)c3cccnc3c(C)c1n2C | % | 53.2 |
| Cc1ccc(S(=O)(=O)/C(=C\c2ccc(Cl)cc2)C(=O)c2ccccc2)cc1 | % | 102 |
| CCCCCCCCCCCCCCCCNC(=O)OC(C)C | % | 35.7 |
| COc1cc(/C=C/C(=O)/C=C/c2cc(OC)c3c(c2)OCO3)cc2c1OCO2 | % | 31.2 |

Moving on to another molecule below.
Consider the molecule COc1cccc(-c2cc3c(O)cc(C#N)cc3[nH]2)c1 and give its measured growth. 86.6

###

- Test system: OVCAR-4 ovarian
- testMethodNotes: NCI-60 one-dose screen, 48 h (100 = growth as untreated, 0 = no growth, -100 = all killed)
- testContext: 10 µM unless noted
About 83,000 compounds went through this panel and 20% of them were active in at least one assay; those are over-represented in the sample as a whole. The source made the active and inactive calls. Rule for the calls: active = growth percent below 10; inactive = the rest.
Each record here notes measured growth.

Some entries whose results are on file:
| compound | growth |
| --- | --- |
| COc1ccc(-c2ccc(-c3ccc(-c4ccc(C(=N)N)cc4)s3)s2)cc1OC | -53.2% (active) |
| Cc1nc2ncccc2nc1Nc1ccc(S(=O)(=O)Nc2cncs2)cc1 | 98.6% (inactive) |
| COc1ccc(OC)c(C2OC(c3ccc4ccccc4c3O)=NN2C(C)=O)c1 (configuration not stated) | 75.5% (inactive) |
| C1=Cc2ccccc2N(c2nnc(-c3ccccc3)o2)c2ccccc21 | 92.1% (inactive) |
| O=C(CSc1nc2ccccc2[nH]1)Nc1ccc(-c2nc3ccccc3s2)c(Cl)c1 | -39.8% (active) |

Consider the compound Brc1cccc(-c2cc(-c3ccc4nccnc4c3)[nH]n2)c1 and give its measured growth. 48.3% [25 µM] (inactive)

Likewise for N#Cc1c(-c2ccccc2)cc(-c2ccccc2)n(CC(=O)NO)c1=O ? 50.6% (inactive)

Likewise for COc1ccc(C2CC(c3ccc(OC)cc3OC)=NN2c2ccc(S(N)(=O)=O)cc2)cc1 (configuration not stated) ? 80.2% (inactive)

Likewise for O=S(=O)(c1ccc(OCCO)cc1)c1ccc(OCCO)cc1 ? 111% (inactive)

Likewise for COc1cccc(-c2cc3c(O)cc(C#N)cc3[nH]2)c1 ? 83.7% (inactive)

Likewise for O=c1c2sc3ncccc3c2nnn1-c1ccccc1 ? 103% (inactive)

Likewise for O=C1/C(=C/c2ccccc2)CN(C(=O)CCN2CCC(=NO)CC2)C/C1=C\c1ccccc1 ? 15.3% (inactive)

Likewise for C=C1CC2(OC1=O)C(=O)N(CCCN1C(=O)C3(CC(=C)C(=O)O3)c3ccccc31)c1ccccc12 (configuration not stated) ? 25.2% (inactive)

Likewise for CCC1=CCC[C@@]2(C)CCC[C@@]3(C)CCCC(C)(C)[C@]1([O-])[O+]32 ? 85.1% (inactive)

Likewise for O=c1[nH]c(-c2ccccc2)nc(CN2CCCCC2)c1O ? 110% (inactive)

Likewise for COc1ccc(-c2ccc(C)n2-c2ccc(-c3nc4ccccc4s3)cc2)cc1 ? 92.9% (inactive)

Likewise for CC(C)(C)n1cc(-c2ccnc(NCCCNS(=O)(=O)c3ccc(Br)cc3)c2)c(-c2cccc(O)c2)n1 ? 36.5% (inactive)

Likewise for O=C1c2c(Cl)c(Cl)c(Cl)c(Cl)c2C(=O)C2(Cl)CC=CCC12Cl (configuration not stated) ? -59.1% (active)

Likewise for CCOC(=O)c1ccc2c(c1)c1c(C)c3cccnc3c(C)c1n2C ? 62.7% (inactive)

Likewise for CC(C)C(C(=O)NCCN1CCOCC1)N1C(=O)/C(=C/c2ccc(Br)cc2)SC1=S (configuration not stated) ? 105% (inactive)

Likewise for CC(C)(C)n1cc(-c2ccnc(NCCCNS(=O)(=O)c3ccc(Cl)cc3)c2)c(-c2cccc(O)c2)n1 ? 23.4% (inactive)

Likewise for CCc1cnc(=S)n(-c2ccccc2)c1 ? 135% (inactive)

Likewise for COc1ccc(/C=C(\C#N)c2cc(OC)c3c(c2)OCO3)cc1 ? 39% (inactive)

This collection of values is drawn from PubChem BioAssay (NCI).
